The reader will find reported Neuritogenic effect, 1 µM NPY fragment (% of control) values listed item by item below.
target: NCAM on rat hippocampal neurons (rat, UniProt P13596 20-858); test: cell-based or functional assay
Sequence (P13596 20-858): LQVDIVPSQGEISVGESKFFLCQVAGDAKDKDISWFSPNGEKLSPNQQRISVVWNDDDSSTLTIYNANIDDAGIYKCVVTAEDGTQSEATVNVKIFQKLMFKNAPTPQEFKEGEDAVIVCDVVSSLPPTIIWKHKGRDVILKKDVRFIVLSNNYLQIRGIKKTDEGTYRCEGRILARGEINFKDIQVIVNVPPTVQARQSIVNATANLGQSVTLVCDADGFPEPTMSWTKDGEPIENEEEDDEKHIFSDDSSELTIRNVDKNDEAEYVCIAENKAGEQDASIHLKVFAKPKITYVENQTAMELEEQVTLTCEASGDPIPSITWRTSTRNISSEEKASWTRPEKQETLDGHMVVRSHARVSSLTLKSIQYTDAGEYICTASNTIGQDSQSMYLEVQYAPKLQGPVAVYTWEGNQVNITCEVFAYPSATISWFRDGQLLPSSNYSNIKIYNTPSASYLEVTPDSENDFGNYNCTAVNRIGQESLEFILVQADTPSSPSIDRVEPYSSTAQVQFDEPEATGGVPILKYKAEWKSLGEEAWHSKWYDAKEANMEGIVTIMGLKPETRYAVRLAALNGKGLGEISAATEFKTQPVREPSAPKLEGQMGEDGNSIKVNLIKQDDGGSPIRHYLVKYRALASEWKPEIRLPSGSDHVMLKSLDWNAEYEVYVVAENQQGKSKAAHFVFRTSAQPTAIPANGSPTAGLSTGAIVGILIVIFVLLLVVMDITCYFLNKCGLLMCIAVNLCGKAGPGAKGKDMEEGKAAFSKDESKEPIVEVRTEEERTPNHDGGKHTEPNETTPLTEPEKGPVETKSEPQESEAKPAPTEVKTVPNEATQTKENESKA
Ends that are not written are not given here.
REPORTED_ENDPOINT: Neuritogenic effect, 1 µM NPY fragment (% of control)

binder="ALRHYINLITRQR [NPY23-35]" result="96.2 % of control"
binder="YSALRHYINLITRQ [NPY21-34]" result="87.7 % of control"
binder="ALRHYINLITRQRY-NH2 [NPY23-36]" result="107 % of control"
binder="YSALRHYINLITRQRY-NH2 [NPY21-36]" result="108 % of control"
